experimental_target: human ether-à-go-go-related gene (hERG) potassium channel (human, UniProt Q12809);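 note: peak tail current of the secondary pulse compared with the same well before compound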
Sequence (Q12809 whole entry, looked up): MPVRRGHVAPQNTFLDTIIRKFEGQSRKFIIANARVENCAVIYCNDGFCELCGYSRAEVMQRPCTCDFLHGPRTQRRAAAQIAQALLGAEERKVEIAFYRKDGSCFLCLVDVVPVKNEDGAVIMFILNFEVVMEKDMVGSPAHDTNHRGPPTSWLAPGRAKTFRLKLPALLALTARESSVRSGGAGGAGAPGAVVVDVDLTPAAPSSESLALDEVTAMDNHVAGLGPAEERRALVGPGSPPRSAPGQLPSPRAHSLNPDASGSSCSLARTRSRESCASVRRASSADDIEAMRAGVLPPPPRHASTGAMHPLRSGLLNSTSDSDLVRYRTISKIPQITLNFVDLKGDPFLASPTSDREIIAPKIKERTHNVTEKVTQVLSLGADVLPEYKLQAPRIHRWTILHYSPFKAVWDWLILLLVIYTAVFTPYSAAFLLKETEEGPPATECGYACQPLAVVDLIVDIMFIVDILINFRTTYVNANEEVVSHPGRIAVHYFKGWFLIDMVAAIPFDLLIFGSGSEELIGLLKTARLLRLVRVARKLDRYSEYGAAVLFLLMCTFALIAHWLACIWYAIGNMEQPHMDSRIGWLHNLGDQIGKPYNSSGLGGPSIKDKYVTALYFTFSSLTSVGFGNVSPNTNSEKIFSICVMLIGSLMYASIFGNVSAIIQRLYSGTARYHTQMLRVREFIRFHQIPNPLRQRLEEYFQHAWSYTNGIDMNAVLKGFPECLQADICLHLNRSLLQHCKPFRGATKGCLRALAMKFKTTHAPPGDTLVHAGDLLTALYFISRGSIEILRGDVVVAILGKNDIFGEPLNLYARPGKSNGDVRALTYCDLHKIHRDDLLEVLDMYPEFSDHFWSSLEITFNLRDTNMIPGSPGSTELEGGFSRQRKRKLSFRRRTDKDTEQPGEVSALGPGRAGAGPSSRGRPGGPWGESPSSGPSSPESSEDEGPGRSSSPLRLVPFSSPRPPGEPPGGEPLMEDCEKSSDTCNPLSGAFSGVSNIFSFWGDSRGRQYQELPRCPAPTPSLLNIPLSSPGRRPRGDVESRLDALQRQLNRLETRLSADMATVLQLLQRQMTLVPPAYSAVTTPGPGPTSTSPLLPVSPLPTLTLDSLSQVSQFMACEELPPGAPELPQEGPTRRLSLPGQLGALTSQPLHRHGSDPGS
experimental_protocol: primary screen, population patch clamp on CHO cells stably expressing hERG; higher = less effect of the substance
Method: Briefly, Chinese hamster ovary (CHO) cells stably expressing the hERG channel were dislodged from tissue culture flasks and dispensed into PPC plates. […] During the recording, background leak currents were estimated by a 100 ms step to -80 mV from an initial holding potential of -70 mV and subtracted from the subsequent current measurement. The campaign was conducted in two phases using slight differences in recording protocol. […]
Screen size: about 310,000 compounds; about 14,000 (4.5%) showed an effect of 50% or more. Effects have a minus sign here. This excerpt belongs to a sample that is enriched for strong results.
measured_metric: hERG current change (%, negative = inhibition) at 10uM (%)
Just the number please, in %, no unit attached.

{"columns": ["compound", "unit_name", "reading"],
 "data": [
  ["O=C(Nc1ccccc1N1CCCC1)c1ccccc1Cl", "%", 6.75],
  ["COc1ccc(OC)c(NC(=O)c2ccc(Cl)cc2)c1", "%", -5.32]
]}

The compound `CNC(=S)Nc1cc(S(=O)(=O)Nc2cc(Cl)ccc2Cl)ccc1N1CCCC1` showed hERG current change (%, negative = inhibition) at 10uM equal to -12.4

Value of hERG current change (%, negative = inhibition) at 10uM reported for the compound `Cc1ccccc1C(=O)Nc1ccccc1N1CCN(C(=O)c2ccccc2)CC1` is -74

hERG current change (%, negative = inhibition) at 10uM in this record for `CC(C)CNC(=O)/C(C#N)=C1\N=C(NC(=O)c2ccco2)c2ccccc21` : -60.4

# compound `O=C(Nc1ccccc1N1CCN(C(=O)c2ccccc2)CC1)c1ccccc1Cl` ; its hERG current change (%, negative = inhibition) at 10uM = -78.8

Lookup result for O=C1c2ccccc2C2(c3ccccc3)NCCN12 (stereo not shown) ; measured hERG current change (%, negative = inhibition) at 10uM: 5.86

Recorded result, `Cc1ccccc1C(=O)Nc1ccccc1N1CCCCC1` , hERG current change (%, negative = inhibition) at 10uM: 8.11

# hERG current change (%, negative = inhibition) at 10uM of `Cc1ccccc1N1C(=O)/C(=C/c2ccco2)C(=O)NC1=S` = 16.5

hERG current change (%, negative = inhibition) at 10uM reading for `O=C(c1ccccc1)c1ccc(C(=O)N2CCN(c3ccccc3Cl)CC2)cc1` : -13.3

* * *

experimental_target: human ether-à-go-go-related gene (hERG) potassium channel (human, UniProt Q12809);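 note: peak tail current of the secondary pulse compared with the same well before compound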
experimental_protocol: primary screen, population patch clamp on CHO cells stably expressing hERG; higher = less effect of the substance
Hit rate of the full screen: of about 310,000 compounds, about 14,000 (4.5%) showed an effect of 50% or more. The effect is printed as a negative number. The entries come from a sample that favours strong results as a whole.
The compounds listed here are annotated with their hERG current change (%, negative = inhibition) at 10uM.
Just the number in %, nothing appended.

Worked examples, 3 compounds total:
{"columns": ["compound", "reading"],
 "data": [
  ["COc1ccc(-c2nn(-c3ccccc3)cc2/C=N/N=C(N)N)cc1OC", -27.8],
  ["COc1ccc(-n2c(O)c(C(C)=NCCc3c[nH]c4ccccc34)c(=O)[nH]c2=O)cc1", 14.6],
  ["Cc1ccc(NC(=O)C(C)Sc2nnc(-c3cccnc3)n2-c2ccccc2)cc1 (centres unmarked)", -81.4]
]}

Record summary for `O=C(CSc1nnc(-c2cccnc2)n1-c1ccccc1)Nc1ccccc1` : reported hERG current change (%, negative = inhibition) at 10uM = -76.3

compound `Cc1ccsc1C(=O)NNC(=O)c1csc(N2CCOCC2)n1` , hERG current change (%, negative = inhibition) at 10uM observed: 12.7

Attribution: paper PMC4336329
